Target: Chymotrypsin (Homo sapiens) (UniProt Q99895+P17538+P40313+Q6GPI1)
Assay: Chymotrypsin inhibition percentage at 10 µM by FRET kind of response from peptide substrate
Format: functional
Where a name gives a salt, the structure may show the parent alone.
For each entry below, report its inhibition value.
Answers are plain numbers, in %.

Compound	Assayed Target	Unit Annotation	inhibition
c1ccc2sc(SSc3nc4ccccc4s3)nc2c1	Chymotrypsin (Homo sapiens) (UniProt Q99895+P17538+P40313+Q6GPI1)	%	5.04

Here are 6 compounds. What values of inhibition were reported for them?
1. CC(C)Nc1cccnc1N1CCN(C(=O)c2cc3cc(NS(C)(=O)=O)ccc3[nH]2)CC1 [DELAVIRDINE MESYLATE]
2. O=C1C(Cl)=C(N2CCOCC2)C(=O)N1c1ccc(Cl)c(Cl)c1
3. N#CSc1cc(SC#N)c(N)nc1N
4. O=C(CC1Sc2ncnn2C1=O)Nc1ccc(Br)cc1 (centres undefined)
5. CCOC(=O)c1c(N)sc(-c2ccccc2)c1C
6. O=C(O)c1cc(O)c2c(c1)[C@H]([C@H]1c3cc(C(=O)O)cc(O)c3C(=O)c3c(O[C@@H]4O[C@H](CO)[C@@H](O)[C@H](O)[C@H]4O)cccc31)c1cccc(O[C@@H]3O[C@H](CO)[C@@H](O)[C@H](O)[C@H]3O)c1C2=O [Sennoside A]

1. 9.13
2. 7.24
3. 4.59
4. 8.42
5. 5.82
6. 2.66

The following compounds each have a reported value; give each one's inhibition.
1. CCCCn1c(NC(=O)c2cccs2)c(C#N)c2nc3ccccc3nc21
2. Cc1ccccc1N(C)C(=O)c1ccc([S+]([O-])c2nccs2)c([N+](=O)[O-])c1 (centres undefined)

[-3.7, 0.13]
